B1: library; numbered along this chain (parent)
chain: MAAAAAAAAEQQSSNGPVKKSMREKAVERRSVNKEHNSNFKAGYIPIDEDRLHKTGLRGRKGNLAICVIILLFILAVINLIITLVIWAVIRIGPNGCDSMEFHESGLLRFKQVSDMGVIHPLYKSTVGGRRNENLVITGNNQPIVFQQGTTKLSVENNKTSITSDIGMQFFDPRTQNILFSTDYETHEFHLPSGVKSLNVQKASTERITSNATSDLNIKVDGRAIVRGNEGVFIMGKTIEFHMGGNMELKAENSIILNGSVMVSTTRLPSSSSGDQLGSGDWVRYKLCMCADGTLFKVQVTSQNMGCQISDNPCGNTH

Variants of: B1
Test: SGCB cell-surface expression functional score (HA stain, bin4 vs bin1, normalised to synonymous) (log10 ratio); higher = more cell-surface SGCB (functional)
reported.metric: SGCB cell-surface expression functional score (log10)
One number for each entry.

mutant_label=I144P value_observed=-1.22
mutant_label=Y285H value_observed=-0.04
mutant_label=E35V value_observed=0.1
mutant_label=T266F value_observed=0.7
mutant_label=D115Y value_observed=-0.03

Give SGCB cell-surface expression functional score (log10) for all variants that follow.
1. H242M
2. E133A
3. S270C
4. I81W
5. S181V
6. A9G

Reply:
0.2
-0.35
-0.02
-0.38
-1.52
0.37

Give SGCB cell-surface expression functional score (log10) for all variants that follow.
1. N211L
2. T138E

Reply:
1. -0.58
2. -0.61

Give SGCB cell-surface expression functional score (log10) for all variants that follow.
1. G56D
2. D48V
3. T126D
4. E206Q
5. H36C
6. N15G
7. V283G
8. G93Y

Reply:
1. -0.5
2. 0.07
3. -0.63
4. -0.93
5. -0.16
6. 0.04
7. 0.12
8. -1.86
